# Lookup of reported absolute recovery keyed by entry
Assay: absolute recovery over mixed-bed multilayer solid-phase extraction; higher = better recovery
Conditions: surface water; enrichment method: SPE
Answer format: numeric, % implied, no suffix.

compound	unit_info	absolute recovery
C#CC[N+](C)([O-])C(C)Cc1ccccc1 (stereo not given) [Deprenyl-N-Oxide]	%	71.5

Looking up `Cc1ncc2n1-c1ccc(Cl)cc1C(c1ccccc1F)=NC2` , I found its absolute recovery recorded as 90.5

###

Assay: absolute recovery over mixed-bed multilayer solid-phase extraction; higher = better recovery
Conditions: nanopure water; enrichment method: SPE
Values of absolute recovery greater than or equal to 90% map to Satisfied; values below map to Not satisfied.

query: For this compound, is measured absolute recovery 90% or higher? CC1COC(=O)c2cc3c(cc21)C(C)(C)C(C)C3(C)C (configuration not stated) [Galaxolidon]
result: Satisfied

query: For this compound, is measured absolute recovery 90% or higher? CC(C)C([NH3+])C(=O)OCC(CO)OCn1cnc2c(=O)[nH+]c(N)[nH]c21 (configuration not stated) [Valganciclovir]
result: Not satisfied

###

Test: absolute recovery over mixed-bed multilayer solid-phase extraction; higher = better recovery
Settings: wastewater effluent; enrichment method: SPE
Values of absolute recovery greater than or equal to 90% map to Fulfilled; values below map to Not fulfilled.

compound	assigned_class
CC(C)Oc1cccc(NC(=O)c2ccccc2C(F)(F)F)c1	Fulfilled
CC(Cc1ccc(C(C)(C)C)cc1)C[NH+]1CCCCC1 (stereo unspecified)	Fulfilled
CCC(CO)NCC[NH2+]C(CC)CO (stereo unspecified)	Not fulfilled

query: For this compound, is measured absolute recovery 90% or higher? `FC(F)(F)c1cccc(N2CC[NH2+]CC2)c1`
result: Not fulfilled

###

Test: LC retention time (Atlantis T3, 5-95% MeOH gradient, 0.1% formic acid); higher = more retained / less polar
reported_metric: LC retention time
Returns: string containing the number followed by the unit.

compound	LC retention time
CC=C1[NH+](C)C(C)CC1(c1ccccc1)c1ccccc1 (configuration not stated) [EDDP (=2-Ethylidene-1-5-dimethyl-3-3-diphenylpyrrolidin)]	14.4 min

Looking up COC=C(C(=O)OC)c1ccccc1Oc1cc(Oc2ccccc2C#N)ncn1 [Azoxystrobin] , I found its LC retention time recorded as 18.9 min

Looking up C[NH+](C)CC(c1ccc(O)cc1)C1(O)CCCCC1 (configuration not stated) [O-Desvenlafaxin] , I found its LC retention time recorded as 12 min

Looking up Cc1cccc(N(C)C(=S)Oc2ccc3ccccc3c2)c1 [Tolnaftat] , I found its LC retention time recorded as 22 min

Looking up O=C([O-])c1cccc(Oc2ccccc2)c1 [3-Phenoxybenzoic-acid] , I found its LC retention time recorded as 19.8 min

Looking up CC(C)[NH2+]CC(O)c1ccc(NS(C)(=O)=O)cc1 (configuration not stated) [Sotalol] , I found its LC retention time recorded as 8.25 min

Looking up CCc1ccc(CCOc2ccc(CC3SC(=O)[N-]C3=O)cc2)nc1 (configuration not stated) [Pioglitazone] , I found its LC retention time recorded as 14.3 min

Looking up CNC(=O)ON=C(C)SC [Methomyl] , I found its LC retention time recorded as 11.9 min

Looking up OCC(O)C[NH+]1CCN(c2ccccc2)CC1 (configuration not stated) [Dropropizine] , I found its LC retention time recorded as 9.49 min

Looking up C[NH+]1C2CCC1C(C(=O)[O-])C(OC(=O)c1ccccc1)C2 (configuration not stated) [Benzoylecgonin] , I found its LC retention time recorded as 12.8 min

Looking up CCCCOc1ccc(OCCC[NH+]2CCOCC2)cc1 [Pramoxine] , I found its LC retention time recorded as 15.1 min

Looking up C[NH+](C)CCC(c1ccccc1)c1ccccn1 (configuration not stated) [Pheniramine] , I found its LC retention time recorded as 11 min

Looking up CS(=O)(=O)c1ccc(C(=O)[O-])c([N+](=O)[O-])c1 [Mesotrion-MNBA] , I found its LC retention time recorded as 9.31 min

Looking up C1=Cc2ccccc2Nc2ccccc21 [Iminostilben] , I found its LC retention time recorded as 20 min

Looking up CC(=O)N(CC(O)CN(C(C)=O)c1c(I)c(C(=O)NCC(O)CO)c(I)c(C(=O)NCC(O)CO)c1I)c1c(I)c(C(=O)NCC(O)CO)c(I)c(C(=O)NCC(O)CO)c1I (configuration not stated) [Iodixanol] , I found its LC retention time recorded as 10.7 min

Looking up CC[NH+](CC)CC#CCOC(=O)C(O)(c1ccccc1)C1CCCCC1 (configuration not stated) [Oxybutynin] , I found its LC retention time recorded as 16.2 min

Looking up CC(C)Nc1nc(N)nc(Cl)n1 [Atrazin-Desethyl] , I found its LC retention time recorded as 15.3 min

Looking up NC(=O)Nc1ccc(Cl)c(Cl)c1 [Diuron-desdimethyl (=1-(3-4-Dichlorophenyl)urea)] , I found its LC retention time recorded as 18 min

Looking up Cc1ccc(NC=O)c(C)c1 [2-4-dimethylphenylformamid] , I found its LC retention time recorded as 16.5 min

Looking up COc1ccc(NC(=O)N(C)C)cc1Cl [Metoxuron] , I found its LC retention time recorded as 16 min

Looking up COc1cccc(C(=O)NN(C(=O)c2cc(C)cc(C)c2)C(C)(C)C)c1C [Methoxyfenozid] , I found its LC retention time recorded as 19.7 min

Looking up CC(C)[NH2+]CC(O)COc1ccc(COCCOC(C)C)cc1 (configuration not stated) [Bisoprolol] , I found its LC retention time recorded as 13.8 min

###

Experiment: LC retention time (Atlantis T3, 5-95% MeOH gradient, 0.1% formic acid); higher = more retained / less polar
reported_metric: LC retention time (min)
Answer format: numeric, min implied, no suffix.

compound	LC retention time / min
O=C1C(Cl)C(CCl)CN1c1cccc(C(F)(F)F)c1 (configuration not stated)	19.9
CC(C)(C)[NH2+]CC(O)c1ccc(O)c(CO)c1 (configuration not stated)	8.59
CN(C)C(=O)Nc1ccc(-n2nc(C(C)(C)C)oc2=O)c(Cl)c1	18.9
O=P1(NCCCl)OCCCN1CCCl (configuration not stated)	15.5
CS(=O)(=O)c1ccc(C(=O)[C-]2C(=O)CCCC2=O)c(Cl)c1COCC(F)(F)F	18.9
CCOc1cc(CC(=O)NC(CC(C)C)c2ccccc2N2CCCCC2)ccc1C(=O)[O-] (configuration not stated) [Repaglinide]	19.3
COc1ccc2cc(C(C)C(=O)[O-])ccc2c1 (configuration not stated)	19.3
COC(=O)C(Cc1ccccc1)NC(=O)C(CC(=O)[O-])[NH2+]CCC(C)(C)C (configuration not stated)	17.2
CON(C)C(=O)Nc1ccc(Cl)c(Cl)c1	19.5
CC([NH2+]C(C)(C)C)C(=O)c1cccc(Cl)c1 (configuration not stated)	13.5

Looking up `O=C1NCCN1Cc1ccc(Cl)nc1` , I found its LC retention time recorded as 13.2

Looking up `COc1nc(NC(C)C)nc(NC(C)C)n1` , I found its LC retention time recorded as 15.8

###

Assay: absolute recovery over mixed-bed multilayer solid-phase extraction; higher = better recovery
Settings: surface water; enrichment method: SPE
reported_metric: absolute recovery (%)
Answer format: numeric, % implied, no suffix.

Looking up CCC1OC(=O)C(C)C(OC2CC(C)(OC)C(O)C(C)O2)C(C)C(OC2OC(C)CC([NH+](C)C)C2O)C(C)(O)CC(C)C(=O)C(C)C(O)C1(C)O (stereo not drawn) , I found its absolute recovery recorded as 69.3

###

Assay: absolute recovery over mixed-bed multilayer solid-phase extraction; higher = better recovery
Conditions: nanopure water; enrichment method: SPE
Values of absolute recovery greater than or equal to 40% map to t; values below map to f.

Solved cases (3 shown):
molecule	assigned_class
[NH3+]CCc1ccc(O)c(O)c1 [Dopamine]	f
COc1c(C)c2c(c(O)c1CC=C(C)CCC(=O)[O-])C(=O)OC2 [Mycophenolic-Acid]	t
CC([NH2+]C(C)(C)C)C(=O)c1cccc(Cl)c1 (stereo not given) [Bupropion]	t

In the following, a different molecule is considered.
query: For this molecule, is measured absolute recovery 40% or higher? CCC1OC(=O)CC(O)C(C)C(OC2OC(C)C(OC3CC(C)(O)C(O)C(C)O3)C([NH+](C)C)C2O)C(CC=O)CC(C)C(=O)C=CC(C)=CC1COC1OC(C)C(O)C(OC)C1OC (stereo not given) [Tylosin]
result: t

###

# Lookup of reported absolute recovery keyed by entry
Assay: absolute recovery over mixed-bed multilayer solid-phase extraction; higher = better recovery
Settings: wastewater effluent; enrichment method: SPE
Answer format: numeric, % implied, no suffix.

Would you please look over these solved cases?
CC(C)OC(=O)C(C)(C)Oc1ccc(C(=O)c2ccc(Cl)cc2)cc1 81
COCCN(C(=O)C(=O)[O-])c1c(C)cccc1C 92.8
CN(C)C(=O)Nc1ccc(-n2nc(C(C)(C)C)oc2=O)c(Cl)c1 100

Could you now look at the following molecule, please?
Looking up `COC(=O)c1sccc1S(=O)(=O)[N-]C(=O)Nc1nc(C)nc(OC)n1` , I found its absolute recovery recorded as 93.4
